From: PubChem BioAssay (EPA / NIEHS)

# Read-out: Insulin-like growth factor-binding protein 1 (IGFBP1), IGFBP1 (gene 3484)
# method: LTEA_HepaRG_IGFBP1: Life Technologies and Expression Analysis (LTEA) Assay for Insulin-like growth factor-binding protein 1 (IGFBP1) using HepaRG (AID 2283508)
# experimental.context: mRNA level, 48 h; actives raise or lower the signal
# Method: LTEA_HepaRG is a cell based, multiplexed-readout assay that uses HepaRG, a human liver cell line, with measurements taken at 48 hours after chemical dosing on a 96-well plate.LTEA_HepaRG_IGFBP1 is one of 102 assay component(s) measured in the LTEA HepaRG cell culture assay. It is a marker of Cell proliferation, survival, death.Data from the assay component LTEA_HepaRG_IGFBP1 was analyzed into 1 endpoint. […]
The source made the active and inactive calls. How the source made its calls: active means hit-call score of the fitted dose curve at least 0.9, where 1 is the maximum; inactive means score below 0.9.
Outcome (select one): active, inactive

COCCO: inactive
CCOC(=O)COc1cc(-n2ncc(C(F)(F)F)c(C)c2=O)c(F)cc1Cl: inactive
CCCCCCC(C)OC(=O)COc1nc(F)c(Cl)c(N)c1Cl (centres undefined): inactive
CCCCCOC(=O)COc1cc(N2C(=O)C3=C(CCCC3)C2=O)c(F)cc1Cl: inactive
CN(C)C(=O)Nc1ccc(Cl)c(Cl)c1: active

Please share the test call associated with CCCCC(CC)COC(=O)c1ccccc1C(=O)O (centres undefined) .
inactive
